Origin of values: PubChem BioAssay (NCATS)

Assay: qHTS Assay for Lipid Storage Modulators (AID 1519)
Conditions: Drosophila S3 cells, BODIPY lipid droplet/cell ratio, laser cytometry; measured here: lipid channel max response; cells loaded with oleic acid
Results filed as inconclusive are left out.
result.type: max response (%)
Enter your answer as a number in %; do not include the unit.

Lookup result for Cc1ccccc1-c1cncnc1N1CCN(C)CC1 ; measured max response: 8.66

Form: compound = CC(=O)N1CCC2(CCCN(Cc3ccc(C#N)cc3)C2)CC1 ; max response = 18.3

Given item Cc1cnc(CNc2cc(-c3ccoc3)ncn2)cn1 , the value recorded as its max response is 14.7

// max response lookup, compound = CCCN[C@@H](C)C(=O)Nc1ccccc1C , result: 11.2

GET /value?item= N#Cc1ccc(CN2CC3(CCN(C(=O)c4cccc(F)c4)CC3)C2)cc1 &field=max response returns 3.31

Briefly, max response measured for CN(C)c1ncc2nc(-c3ccc(F)cc3)c(=O)n(C3CC3)c2n1 : 13.7

// recorded max response for CS(=O)(=O)N1CCC2(CC1)CN(Cc1ccc(C#N)cc1)C2 : 16.5

Consider O=C(Nc1ccccc1)N1CCCC2(CCNCC2)C1 . Its measured max response is 25

Value of measured max response for the entry CS(=O)(=O)Nc1cccc(-c2nc(N3CCOCC3)c3ccccc3n2)c1 : -22

GET /value?item= Cc1ccccc1-c1nc(-n2ccnc2)c2ccccc2n1 &field=max response returns -2.77

Summary for this compound, CC(=O)O[C@@H](C)C[N+](C)(C)C : max response is -4.64

So, COc1cccc(-c2ccc3ncnc(NCCN4CCOCC4)c3c2)c1 ? Its max response was -15.9

Entry Nc1ncnc2c1ncn2[C@@H]1O[C@H](COP(=O)(O)OP(=O)(O)OP(=O)(O)OP(=O)(O)OC[C@@H]2O[C@H](n3cnc4c(N)ncnc43)[C@@H](O)[C@@H]2O)[C@H](O)[C@H]1O ; max response = 19.7

CN(C)Cc1ccccc1-c1cncnc1NCc1ccccc1 has a reported max response of 10.2

Sure, the documented max response for COc1ccc2ccc(=O)oc2c1 is 5.5

Entry under test: CC(C)NC(=O)N1CC2(CCN(C(=O)c3cccn3C)CC2)C1 . Its max response was 15.6

The compound listed as CS(=O)(=O)N1CCC2(CC1)CN(C(c1ccccc1)c1ccccc1)C2 has a reported max response of -3.93

Lookup result for COCC(=O)N1CCC2(CCN(Cc3ccccc3)CC2)CC1 ; measured max response: 9.37

The reported value for CC(=O)OC1CCC23CC1(C)CCC2C(C)(C)CC3OC(C)=O (centres undefined) in terms of max response is 6.37

response.value for Cn1cccc1C(=O)N1CCC2(CC1)CCN(C(c1ccccc1)c1ccccc1)CC2 (field: max response) = -8.47

Sample COCCc1ccc(OC[C@H](O)CNC(C)C)cc1 ; max response observed: 11.2

The value of max response measured for the compound COc1ccc(-n2c(=O)cnc3cnc(Nc4ccccc4)nc32)cc1 turned out to be 18.1

Lab note: CN1CCN(c2ncnc3ccc(-c4cccc(NS(C)(=O)=O)c4)cc23)CC1 gave max response of -16

Lookup result for CCCCCCCCCCCCCC(=O)O[C@H](CC(=O)O)C[N+](C)(C)C ; measured max response: -2.97

Quick note, max response for Cc1noc(C)c1C(=O)N1CCC2(CC1)CN(c1ccccn1)C2 landed at 15.4

The compound listed as Cn1cccc1C(=O)N1CCC2(CC1)CN(C(=O)Nc1cccc(F)c1)C2 shows max response equal to 0.81

Looking up CN1CCN(c2ncc3nc(-c4cn(C)c5ccccc45)c(=O)n(C)c3n2)CC1 , I see its max response listed as 7.8

The compound listed as COC(=O)N1CCC2(CC1)CN(c1ccccc1)C2 shows max response equal to 2.93

Record CN1CCN(c2ccnc(-c3ccccc3C(F)(F)F)n2)CC1 , field max response: -14.8

For record COc1ccccc1CN1CCC2(CC1)CCN(S(C)(=O)=O)CC2 the listed max response is -18.2

Lookup result for FC(F)(F)c1ccccc1-c1ccc2ncnc(N3CCOCC3)c2c1 ; measured max response: 23.6

# compound O=c1c(-c2cc(F)cc(F)c2)nc2cnc(Oc3ccccc3)nc2n1C[C@H]1CCCO1 ; its max response = 10.1

Record summary for CCC[C@H]1C(=O)N2C(N(C)C)=Nc3ccc(C)cc3N2C1=O : reported max response = -12

Per the records, this compound ( CC[C@@]12CCCN3CCc4c(n(c5ccccc45)C(=O)C1)[C@H]32 ) has max response equal to -14

Per the record, C[C@@H]1COc2c(N3CCN(C)CC3)c(F)cc3c(=O)c(C(=O)O)cn1c23 has max response of -10.5

max response for COc1c2ccoc2nc2c(OC)c(OC[C@H](O)C(C)(C)O)ccc12 is -11

Data point: COc1c(O)cc2c(c1O)[C@@H]1O[C@@H](CO)[C@@H](O)[C@@H](O)[C@@H]1OC2=O ; max response = -7.08

Per the records, this compound ( O=C(Oc1ccccc1)N1CCC2(CCCN(c3ccncc3)C2)CC1 ) has max response equal to 10.6

Per the records, this compound ( CO/N=C(\C(=O)N[C@@H]1C(=O)N2C(C(=O)O)=C(COC(C)=O)CS[C@@H]12)c1csc(N)n1 ) has max response equal to -14.6
